assay_system: Rat brain protein farnesyltransferase (Rattus norvegicus, UniProt Q02293+Q04631)
Construct: Rat brain protein farnesyltransferase activity is measured; from tissue; host or cells: rat brain
Sequence (Q02293 whole entry, one chain of several): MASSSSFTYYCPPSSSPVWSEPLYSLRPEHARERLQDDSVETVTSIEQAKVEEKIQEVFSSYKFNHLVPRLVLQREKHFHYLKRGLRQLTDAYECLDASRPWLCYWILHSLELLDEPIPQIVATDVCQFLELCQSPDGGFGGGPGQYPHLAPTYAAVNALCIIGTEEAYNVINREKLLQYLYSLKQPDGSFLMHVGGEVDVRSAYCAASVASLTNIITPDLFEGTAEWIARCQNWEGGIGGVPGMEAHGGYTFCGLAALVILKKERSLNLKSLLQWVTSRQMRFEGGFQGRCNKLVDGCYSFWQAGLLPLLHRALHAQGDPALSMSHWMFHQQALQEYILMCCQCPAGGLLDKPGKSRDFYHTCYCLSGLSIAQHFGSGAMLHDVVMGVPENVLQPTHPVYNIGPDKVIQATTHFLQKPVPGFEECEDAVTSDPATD
protocol_description: % inhibition of farnesylation, scintillation proximity assay with biotin-K Ras B fragment
Assay type: biochemical
particulars: Table 3; 1 × 10^-7 M
# maps each entry to its % inhibition at 1 × 10^-7 M
Express the result in % but write the number alone.

- compound: "CSCC[C@H](NC(=O)c1ccc(CN2CCC[C@@H]2COCc2ccccc2)cc1-c1ccccc1C)C(=O)O"
  unit_label: "%"
  % inhibition at 1 × 10^-7 M: 90
- compound: "CCCCN(CCCC)Cc1ccc(C(=O)N[C@@H](CCSC)C(=O)O)c(-c2ccccc2C)c1"
  unit_label: "%"
  % inhibition at 1 × 10^-7 M: 78
- compound: "CSCC[C@H](NC(=O)c1ccc(NC(=O)CN)cc1-c1ccccc1)C(=O)O"
  unit_label: "%"
  % inhibition at 1 × 10^-7 M: 56
- compound: "CSCC[C@H](NC(=O)c1ccc(CCc2ccc(Oc3ccccc3)nn2)cc1-c1ccccc1C)C(=O)O"
  unit_label: "%"
  % inhibition at 1 × 10^-7 M: 85
- compound: "CSCC[C@H](NC(=O)c1ccc(CNC(CC2CCCCC2)CC2CCCCC2)cc1-c1ccccc1C)C(=O)O"
  unit_label: "%"
  % inhibition at 1 × 10^-7 M: 99

q: Which value of % inhibition at 1 × 10^-7 M has been reported for CSCC[C@H](NC(=O)c1ccc(CCc2ccc(Oc3ccccc3Cl)cc2)cc1-c1ccccc1C)C(=O)O in the records?
a: 92

q: And for CSCC[C@H](NC(=O)c1ccc(/C=C/c2ccc(Oc3cccc([N+](=O)[O-])c3)cc2)cc1-c1ccccc1C)C(=O)O ?
a: 65

q: Likewise for CCSC[C@H](CC1CCCCC1)N(Cc1ccc(C(=O)N[C@@H](CCSC)C(=O)O)c(-c2ccccc2C)c1)C(=O)c1ccccc1 ?
a: 57

q: Please answer likewise for CSCC[C@H](NC(=O)c1ccc(CNCCc2c[nH]c3ccccc23)cc1-c1ccccc1C)C(=O)O
a: 89

---

% inhibition at 1 × 10^-6 M reference
assay_system: Rat brain protein farnesyltransferase (Rattus norvegicus, UniProt Q02293+Q04631)
Construct: Rat brain protein farnesyltransferase activity is measured; from tissue; host or cells: rat brain
protocol_description: % inhibition of farnesylation, scintillation proximity assay with biotin-K Ras B fragment
Type: biochemical
particulars: Table 2; 1 × 10^-6 M
// note: answer is a bare numeric in %

// known answers, use as guide
- compound: "CNCC(=O)Nc1ccc(C(=O)N[C@@H](CCSC)C(=O)O)c(-c2ccccc2)c1"
  unit_label: "%"
  experimental_value: 84
- compound: "COc1ccc(CCNS(=O)(=O)c2ccc(C(=O)N[C@@H](CCSC)C(=O)O)c(-c3ccccc3C)c2)cc1OC"
  unit_label: "%"
  experimental_value: 36
- compound: "CSCC[C@H](NC(=O)c1ccc(CNCCSc2ccccc2)cc1-c1ccccc1)C(=O)O"
  unit_label: "%"
  experimental_value: 83

q: Form field: reported % inhibition at 1 × 10^-6 M of CSCC[C@H](NC(=O)c1ccc(CN(Cc2ccoc2)C(C)C)cc1-c1ccccc1C)C(=O)O
a: 80

q: Ok, now CSCC[C@H](NC(=O)c1ccc(CN(Cc2ccccc2)c2ccccc2Cl)cc1-c1ccccc1C)C(=O)O
a: 85

q: Can you handle Cc1ccccc1-c1cc(CCc2ccc(Oc3ccccc3)cc2)ccc1C(=O)N[C@@H](CC[S+](C)[O-])C(=O)O (stereo partly shown) next?
a: 91

q: And what about the compound CSCC[C@H](NC(=O)c1ccc(CNc2ccc(S(=O)(=O)Nc3onc(C)c3C)cc2)cc1-c1ccccc1C)C(=O)O ?
a: 81
